# assay_target: full-length ATR (Homo sapiens (Human))
# assay_details: ATR Inhibition Assay (radioactive-phosphate incorporation)
# Type: biochemical
# condition_notes: read-out: ATR Ki
Documented Ki across a set of molecules

| molecule | assay_target | Ki |
| --- | --- | --- |
| CN(C)C(=O)c1ccc(-c2cnc(N)c(-c3nnc(-c4ccccc4)o3)n2)cc1 | full-length ATR (Homo sapiens (Human)) | ≤ 0.01 µM |
| COc1cnccc1-c1cnc(N)c(-c2nnc(-c3ccccc3)o2)n1 | full-length ATR (Homo sapiens (Human)) | 0.1 to 5 µM |
| C[C@H](Nc1nnc(-c2nc(-c3ccc(C(=O)N(C)C)cc3)cnc2N)o1)c1ccc(Cl)cc1 | full-length ATR (Homo sapiens (Human)) | 0.01 to 0.1 µM |
| Nc1ncc(-c2cccc3ccccc23)nc1-c1nnc(-c2ccccc2)o1 | full-length ATR (Homo sapiens (Human)) | 0.1 to 5 µM |
| CC(C)S(=O)(=O)c1ccc(-c2cnc(N)c(-c3nnc(C(=O)NCC4CCCNC4)o3)n2)cc1 (stereo not drawn) | full-length ATR (Homo sapiens (Human)) | 0.1 to 5 µM |
| Cc1ccc2nc(-c3nc(-c4ccc(C(=O)N5CCNCC5)cc4)cnc3N)[nH]c2c1 [Compound I-149] | full-length ATR (Homo sapiens (Human)) | 0.01 to 0.1 µM |
| Nc1ncc(-c2cccc(F)c2)nc1C(=O)Nc1ccccc1 | full-length ATR (Homo sapiens (Human)) | 0.1 to 5 µM |
| Nc1ncc(-c2ccc(C(=O)NCCN3CCCC3)cc2)nc1C(=O)Nc1ccccc1 | full-length ATR (Homo sapiens (Human)) | 0.1 to 5 µM |
| Nc1ncc(-c2cccnc2)nc1-c1nnc(-c2cccs2)[nH]1 [IIIA-4] | full-length ATR (Homo sapiens (Human)) | 0.01 to 0.1 µM |

====

# assay_target: full-length ATR (Homo sapiens (Human), UniProt Q13535)
# Sequence (Q13535 whole entry): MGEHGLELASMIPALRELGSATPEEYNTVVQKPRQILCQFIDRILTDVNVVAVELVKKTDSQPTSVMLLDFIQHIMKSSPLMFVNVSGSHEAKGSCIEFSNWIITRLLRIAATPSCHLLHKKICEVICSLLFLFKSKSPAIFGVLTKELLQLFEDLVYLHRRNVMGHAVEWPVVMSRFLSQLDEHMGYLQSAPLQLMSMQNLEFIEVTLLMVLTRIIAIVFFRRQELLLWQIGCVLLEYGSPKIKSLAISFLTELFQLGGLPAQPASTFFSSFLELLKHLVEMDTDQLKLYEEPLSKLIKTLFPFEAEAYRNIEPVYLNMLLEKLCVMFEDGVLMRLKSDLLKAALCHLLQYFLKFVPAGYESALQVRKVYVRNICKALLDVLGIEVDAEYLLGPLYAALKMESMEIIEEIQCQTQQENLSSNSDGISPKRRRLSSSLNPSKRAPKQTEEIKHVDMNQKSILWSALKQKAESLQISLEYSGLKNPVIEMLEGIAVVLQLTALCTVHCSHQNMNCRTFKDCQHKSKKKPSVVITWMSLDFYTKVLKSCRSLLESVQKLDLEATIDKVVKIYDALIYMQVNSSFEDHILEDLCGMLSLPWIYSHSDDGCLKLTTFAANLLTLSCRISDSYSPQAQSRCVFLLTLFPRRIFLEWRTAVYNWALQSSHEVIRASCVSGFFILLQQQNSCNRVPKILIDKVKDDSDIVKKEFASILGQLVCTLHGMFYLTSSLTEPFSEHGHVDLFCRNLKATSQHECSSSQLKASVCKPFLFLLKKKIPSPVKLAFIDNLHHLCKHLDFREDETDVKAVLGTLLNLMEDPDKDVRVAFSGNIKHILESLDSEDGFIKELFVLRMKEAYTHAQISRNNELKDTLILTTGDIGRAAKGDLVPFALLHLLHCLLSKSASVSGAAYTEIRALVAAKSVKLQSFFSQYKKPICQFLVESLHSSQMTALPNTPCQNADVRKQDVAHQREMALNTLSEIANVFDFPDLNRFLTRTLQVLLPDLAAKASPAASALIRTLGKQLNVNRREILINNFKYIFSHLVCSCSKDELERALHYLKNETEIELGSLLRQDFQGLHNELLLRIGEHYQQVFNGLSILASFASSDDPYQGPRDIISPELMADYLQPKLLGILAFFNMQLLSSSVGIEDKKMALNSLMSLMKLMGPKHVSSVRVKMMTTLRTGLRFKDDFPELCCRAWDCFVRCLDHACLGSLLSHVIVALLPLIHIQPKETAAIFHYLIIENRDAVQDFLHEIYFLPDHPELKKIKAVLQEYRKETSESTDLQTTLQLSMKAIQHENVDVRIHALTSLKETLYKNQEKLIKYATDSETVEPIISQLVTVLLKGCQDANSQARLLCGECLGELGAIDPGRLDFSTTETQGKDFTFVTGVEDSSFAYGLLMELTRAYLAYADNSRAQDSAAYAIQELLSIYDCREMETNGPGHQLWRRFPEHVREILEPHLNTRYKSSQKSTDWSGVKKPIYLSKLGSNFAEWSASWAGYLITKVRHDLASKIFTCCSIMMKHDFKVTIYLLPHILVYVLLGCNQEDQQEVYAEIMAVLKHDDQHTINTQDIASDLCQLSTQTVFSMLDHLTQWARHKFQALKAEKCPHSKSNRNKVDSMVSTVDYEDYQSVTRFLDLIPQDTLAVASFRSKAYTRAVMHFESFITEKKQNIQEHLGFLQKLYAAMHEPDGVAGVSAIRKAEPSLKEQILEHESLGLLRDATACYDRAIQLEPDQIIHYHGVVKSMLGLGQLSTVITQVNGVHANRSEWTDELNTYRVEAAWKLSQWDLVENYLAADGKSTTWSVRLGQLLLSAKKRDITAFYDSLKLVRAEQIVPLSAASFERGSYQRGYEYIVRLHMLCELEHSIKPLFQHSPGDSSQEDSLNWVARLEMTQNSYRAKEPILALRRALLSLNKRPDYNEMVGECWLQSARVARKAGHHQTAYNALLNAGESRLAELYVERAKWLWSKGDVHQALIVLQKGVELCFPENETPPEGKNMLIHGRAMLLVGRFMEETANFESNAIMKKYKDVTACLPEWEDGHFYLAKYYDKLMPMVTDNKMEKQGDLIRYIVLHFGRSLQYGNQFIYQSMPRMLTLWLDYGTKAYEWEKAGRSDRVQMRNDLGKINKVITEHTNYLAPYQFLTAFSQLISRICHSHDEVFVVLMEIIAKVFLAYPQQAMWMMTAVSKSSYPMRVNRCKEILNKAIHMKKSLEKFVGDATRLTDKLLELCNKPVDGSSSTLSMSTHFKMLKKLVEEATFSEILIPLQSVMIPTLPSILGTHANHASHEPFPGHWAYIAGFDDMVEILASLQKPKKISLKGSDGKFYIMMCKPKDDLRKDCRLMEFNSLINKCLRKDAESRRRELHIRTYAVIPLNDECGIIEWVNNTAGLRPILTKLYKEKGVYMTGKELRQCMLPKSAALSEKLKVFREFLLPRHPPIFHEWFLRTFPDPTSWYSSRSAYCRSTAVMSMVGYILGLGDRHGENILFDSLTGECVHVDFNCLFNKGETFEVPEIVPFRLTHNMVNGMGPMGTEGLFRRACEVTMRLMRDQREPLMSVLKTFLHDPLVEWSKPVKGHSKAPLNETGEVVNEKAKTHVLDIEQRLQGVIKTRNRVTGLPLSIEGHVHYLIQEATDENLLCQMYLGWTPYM
# assay_details: ATR Inhibition Assay (radioactive-phosphate incorporation)
# Format: biochemical
# condition_notes: read-out: ATR Ki
pKi: −log10 of the molar value.
result_type: pKi

| compound | assay_target | result |
| --- | --- | --- |
| Nc1ncc(-c2ccc(C(=O)N3CCC3)cc2)nc1C(=O)Nc1ccccc1 | full-length ATR (Homo sapiens (Human), UniProt Q13535) | 7.00 to 8.00 |
| COc1ccc(OC)c(NC(=O)c2nc(-c3cccnc3)cnc2N)c1 | full-length ATR (Homo sapiens (Human), UniProt Q13535) | 7.00 to 8.00 |
| CNCc1ccc(-c2nnc(-c3nc(-c4ccc(S(C)(=O)=O)cc4)cnc3N)o2)cc1 | full-length ATR (Homo sapiens (Human), UniProt Q13535) | ≥ 8.00 |
| CNCc1ccc(-c2nnc(-c3nc(-c4ccc(S(=O)(=O)CCN(C)C)cc4)cnc3N)o2)cc1 | full-length ATR (Homo sapiens (Human), UniProt Q13535) | ≥ 8.00 |
| Nc1ncc(-c2ccc(C(=O)NCCCO)cc2)nc1-c1nc2ccccc2[nH]1 | full-length ATR (Homo sapiens (Human), UniProt Q13535) | 7.00 to 8.00 |
| CN(C)C(=O)c1ccc(-c2cnc(N)c(-c3nnc(-c4ccccc4I)o3)n2)cc1 | full-length ATR (Homo sapiens (Human), UniProt Q13535) | ≥ 8.00 |
| Nc1ncc(-c2ccc(S(=O)(=O)C3CCOC3)cc2)nc1-c1nnc(-c2ccccc2F)o1 (centres unmarked) | full-length ATR (Homo sapiens (Human), UniProt Q13535) | ≥ 8.00 |
| CC(C)S(=O)(=O)c1ccc(-c2cnc(N)c(-c3nnc(CC(=O)O)o3)n2)cc1 | full-length ATR (Homo sapiens (Human), UniProt Q13535) | 7.00 to 8.00 |
| NC(=O)c1cccc(NC(=O)c2nc(-c3cccnc3)cnc2N)c1 | full-length ATR (Homo sapiens (Human), UniProt Q13535) | 5.30 to 7.00 |
| CNCc1ccc(-c2nnc(-c3nc(-c4ccc(S(=O)(=O)C(C)CCO)cc4)cnc3N)o2)cc1 (centres unmarked) | full-length ATR (Homo sapiens (Human), UniProt Q13535) | ≥ 8.00 |
| NCCSc1ccccc1-c1cnc(N)c(-c2nnc(-c3ccccc3)o2)n1 | full-length ATR (Homo sapiens (Human), UniProt Q13535) | 5.30 to 7.00 |
| Nc1ncc(-c2ccc(C(=O)NCCN3CCCC3)cc2)nc1-c1nc2ccccc2[nH]1 [III-6] | full-length ATR (Homo sapiens (Human), UniProt Q13535) | 7.00 to 8.00 |
| CC(C)S(=O)(=O)c1ccc(-c2cnc(N)c(-c3nnc(-c4ccc(CCN)cc4)o3)n2)cc1 | full-length ATR (Homo sapiens (Human), UniProt Q13535) | ≥ 8.00 |
| Nc1ncc(-c2cccnc2)nc1C(=O)Nc1cccc(S(N)(=O)=O)c1 | full-length ATR (Homo sapiens (Human), UniProt Q13535) | 7.00 to 8.00 |
| CNCc1ccc(NC(=O)c2nc(-c3ccc(S(C)(=O)=O)cc3)cnc2N)cc1 | full-length ATR (Homo sapiens (Human), UniProt Q13535) | 5.30 to 7.00 |
| Nc1ncc(-c2cccc3cccnc23)nc1-c1nnc(-c2ccccc2)o1 | full-length ATR (Homo sapiens (Human), UniProt Q13535) | 5.30 to 7.00 |
| CC(C)S(=O)(=O)c1ccc(-c2cnc(N)c(-c3nnc(-c4ccc(N)cc4)o3)n2)cc1 | full-length ATR (Homo sapiens (Human), UniProt Q13535) | ≥ 8.00 |

====

# assay_target: full-length ATR (Homo sapiens (Human), UniProt Q13535)
# assay_details: ATR Inhibition Assay (radioactive-phosphate incorporation)
# Type: biochemical
# condition_notes: read-out: ATR Ki
pKi: −log10 of the molar value.

| substance_smiles | pKi |
| --- | --- |
| CC(C)S(=O)(=O)c1ccc(-c2cnc(N)c(-c3nnc(-c4ccc(CNC[C@@H](C)O)cc4F)o3)n2)cc1 | ≥ 8.00 |
| Nc1ncc(-c2cccc(C(=O)N3CCNCC3)c2)nc1C(=O)Nc1ccccc1 | 5.30 to 7.00 |
| CC(C)S(=O)(=O)c1ccc(-c2cnc(N)c(-c3nnc(-c4ccc(CN)s4)o3)n2)cc1 | ≥ 8.00 |
| Cc1ccsc1-c1nnc(-c2nc(-c3ccc(C(=O)N(C)C)cc3)cnc2N)o1 | ≥ 8.00 |
| CN(C)CCNc1cc(-c2cnc(N)c(-c3nnc(-c4ccccc4)o3)n2)ccn1 | 5.30 to 7.00 |
| COc1ccc(NC(C)=O)cc1NC(=O)c1nc(-c2cccnc2)cnc1N | 5.30 to 7.00 |
| CN(C)C(=O)c1ccc(-c2cnc(N)c(-c3nnc(-c4cccc(CCO)c4)o3)n2)cc1 | 7.00 to 8.00 |
| CC(C)S(=O)(=O)c1ccc(-c2cnc(N)c(-c3nnc(-c4cccc(CN(C)C)c4)o3)n2)cc1 | 7.00 to 8.00 |

====

Quick list: pKi per entry.
# assay_target: full-length ATR (Homo sapiens (Human), UniProt Q13535)
# assay_details: ATR Inhibition Assay (radioactive-phosphate incorporation)
# Format: biochemical
# condition_notes: read-out: ATR Ki
pKi: −log10 of the molar value.

| substance_smiles | pKi |
| --- | --- |
| Nc1ncc(-c2ccc(C(=O)N3CCCNCC3)cc2)nc1C(=O)Nc1nc2ccccc2[nH]1 | ≥ 8.00 |
| Nc1ncc(-c2ccc(S(=O)(=O)N3CCC3)cc2)nc1-c1nnc(-c2ccccc2)o1 | ≥ 8.00 |
| COc1cccc(-c2nnc(-c3nc(-c4ccc(C(=O)N(C)C)cc4)cnc3N)o2)c1 | 7.00 to 8.00 |
| CN(C)C(=O)c1ccc(-c2cnc(N)c(-c3nnc(-c4cccc([N+](=O)[O-])c4)o3)n2)cc1 | 5.30 to 7.00 |
| Nc1ncc(-c2ccc(CO)cc2)nc1C(=O)Nc1ccccc1 | 5.30 to 7.00 |
| CS(=O)(=O)c1ccc(-c2cnc(N)c(C(=O)Nc3ccccc3)n2)cc1 | 7.00 to 8.00 |
| COCCN(C)C(=O)c1ccc(-c2cnc(N)c(-c3nnc(-c4ccccc4)o3)n2)cc1 | ≥ 8.00 |
| CNCc1ccc(-c2nnc(-c3nc(-c4ccc(S(=O)(=O)C(C)C)c(F)c4)cnc3N)o2)c(F)c1 | ≥ 8.00 |

====

# assay_target: full-length ATR (Homo sapiens (Human), UniProt Q13535)
# assay_details: ATR Inhibition Assay (radioactive-phosphate incorporation)
# Type: biochemical
# condition_notes: read-out: ATR Ki
Attribute: Ki

| molecule | Ki |
| --- | --- |
| Cc1cccc(-c2nnc(-c3nc(-c4cccnc4)cnc3N)[nH]2)c1 | 10 to 100 nM |
| Nc1ncc(-c2ccc(C(=O)NCCN3CCCC3)cc2)nc1-c1nc2ccccc2[nH]1 [Compound I-133] | 10 to 100 nM |
| CC(C)(C)OC(=O)NCC[S+]([O-])c1ccccc1-c1cnc(N)c(-c2nnc(-c3ccccc3)o2)n1 (centres unmarked) | 100 to 5000 nM |
| COc1ccccc1NC(=O)c1nc(-c2ccco2)cnc1N | 10 to 100 nM |
| CNCc1ccc(-c2nnc(-c3nc(-c4ccc(S(=O)(=O)C(C)C)cc4F)cnc3N)o2)cc1 | ≤ 10 nM |
| Nc1ncc(-c2ccc(C(=O)NCCN3CCCC3)cc2)nc1-c1nc2ccccc2[nH]1 [Compound I-152] | 10 to 100 nM |
| CN1CCN(C(=O)c2ccc(-c3cnc(N)c(C(=O)Nc4ccccc4)n3)cc2)CC1 | 10 to 100 nM |
| Nc1ncc(-c2cccnc2)nc1C(=O)Nc1ccncc1 | 100 to 5000 nM |
| CCS(=O)(=O)c1ccccc1-c1cnc(N)c(-c2nnc(-c3ccccc3)o2)n1 | 100 to 5000 nM |
| CN(C)C(=O)c1ccc(-c2cnc(N)c(-c3nnc(-c4ccccc4)o3)n2)c(Cl)c1 | 10 to 100 nM |
| N#Cc1cnccc1-c1cnc(N)c(-c2nnc(-c3ccccc3)o2)n1 | ≤ 10 nM |
